Biological target: T1, recombinant full-length human PEX19 (human, UniProt P40855 1-299)
T1 construct: PEX19, human, full length, cloned into pETM11; also called recombinant PEX19
T1 sequence (looked up): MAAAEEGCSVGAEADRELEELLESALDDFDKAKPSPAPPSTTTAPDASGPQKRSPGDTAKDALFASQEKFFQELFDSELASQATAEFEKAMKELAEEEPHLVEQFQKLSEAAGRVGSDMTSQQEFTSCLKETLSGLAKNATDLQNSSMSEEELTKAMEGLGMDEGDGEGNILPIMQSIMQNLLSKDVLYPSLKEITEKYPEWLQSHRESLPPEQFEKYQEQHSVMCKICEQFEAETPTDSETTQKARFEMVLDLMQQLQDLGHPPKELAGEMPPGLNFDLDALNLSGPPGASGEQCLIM
Experiment: fluorescence polarisation; fluorescence anisotropy; FITC peptide at 6.7 nM, protein titrated (dilution series, factor 1.5); 25°C; 50 mM Tris-HCl pH 7.5, 250 mM NaCl, 0.5 mM TCEP with 0.67 mg/ml BSA, no detergent; 1:1 hyperbolic fit
Details: both partners purified
pKd: −log10 of the molar value. No end group written: not given here. *: point of attachment. FITC = O=C1OC2(c3ccc(O)cc3Oc3cc(O)ccc32)c2ccc(NC(=S)*)cc21

Binder	pKd
{FITC}-SPGVLTFAIIWPFIAQWLVYLYYQRARAKL (the C-terminal asparagine was removed; also called MUT1 peptide; peptide MUT1; source: synthetic peptide (Genscript)) [FITC-labelled peptide ACBD5 MUT1]	5.72
{FITC}-SPGVLTFAIIWPFIAQWLVYLYYQRRRRKL (TMD and tail region of ACBD5; the C-terminal asparagine residue was removed to facilitate peptide synthesis; also called ACBD5-TMD-T WT peptide; source: synthetic peptide (Genscript)) [FITC-labelled peptide ACBD5 WT]	6.05
{FITC}-SPGVLTFAIIWPFIAQWLVYLYYQAAAAKL (the C-terminal asparagine was removed; also called MUT2 peptide; source: synthetic peptide (Genscript)) [FITC-labelled peptide ACBD5 MUT2]	5.11
